# Target System: PLK2 (Homo sapiens, UniProt Q9NYY3)
# Sequence (Q9NYY3 whole entry): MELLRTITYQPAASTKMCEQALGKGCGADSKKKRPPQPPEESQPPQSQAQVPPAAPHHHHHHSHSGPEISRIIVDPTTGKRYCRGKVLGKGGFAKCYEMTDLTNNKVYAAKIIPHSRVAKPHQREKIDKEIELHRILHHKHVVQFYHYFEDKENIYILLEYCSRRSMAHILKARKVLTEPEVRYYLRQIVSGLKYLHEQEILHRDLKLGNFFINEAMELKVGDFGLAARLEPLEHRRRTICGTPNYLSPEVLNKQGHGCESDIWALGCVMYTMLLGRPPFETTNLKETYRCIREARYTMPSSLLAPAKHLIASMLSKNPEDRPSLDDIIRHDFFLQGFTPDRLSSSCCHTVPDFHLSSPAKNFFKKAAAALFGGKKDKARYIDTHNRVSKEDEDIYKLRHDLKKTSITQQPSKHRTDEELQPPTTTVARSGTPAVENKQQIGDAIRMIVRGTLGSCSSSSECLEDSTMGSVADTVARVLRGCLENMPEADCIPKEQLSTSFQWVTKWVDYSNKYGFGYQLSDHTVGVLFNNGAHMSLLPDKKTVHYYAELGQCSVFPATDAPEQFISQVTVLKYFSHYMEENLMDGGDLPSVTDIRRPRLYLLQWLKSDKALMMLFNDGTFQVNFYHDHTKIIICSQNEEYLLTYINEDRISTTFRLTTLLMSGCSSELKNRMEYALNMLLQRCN
# Experimental Protocol: PLK TR-FRET peptide assay, PLK2
# Type: biochemical
# Particulars: PLK TR-FRET peptide assay, GST-PLK2; read-out: Plk2 IC50
Parameter Measured: IC50

See these solved cases before continuing.
- Molecule: "CC[C@H]1C(=O)N(C)c2cnc(-c3cn[nH]c3-c3nccs3)nc2N1c1ccc(F)c(F)c1 [Example 393]"
  IC50: "1 to 10 µM"
- Molecule: "CC[C@H]1C(=O)N(C)c2cnc(-c3cnsc3-c3ccc(F)cc3)nc2N1c1cccc(C#N)c1 [Example 392]"
  IC50: "> 50 µM"
- Molecule: "CC[C@@H]1C(=O)N(C)c2cnc(-c3cn[nH]c3-c3nccs3)nc2N1c1ccc(F)c(F)c1 [Example 395]"
  IC50: "< 1 µM"

Next molecule, IC50 to be filled in.
Q) Requested read-out: IC50. Entry: CC[C@H]1C(=O)N(C)c2cnc(-c3cn[nH]c3-c3nccs3)nc2N1c1ccc(Cl)cc1 [Example 383]
A) 1 to 10 µM

---

# Target System: PLK2 (Homo sapiens, UniProt Q9NYY3)
# Experimental Protocol: PLK TR-FRET peptide assay, PLK2
# Format: biochemical
# Particulars: PLK TR-FRET peptide assay, GST-PLK2; read-out: Plk2 IC50
Reported IC50 values for a set of molecules

See these solved cases before continuing.
- Molecule: "CCC1C(=O)N(C)c2cnc(-c3cnsc3-c3ccc(F)cc3)nc2N1c1cccc(C#N)c1 (racemic) [Example 401]"
  IC50: "< 1000 nM"
- Molecule: "CC[C@@H]1C(=O)N(C)c2cnc(-c3cnsc3-c3ccc(F)cc3)nc2N1c1cccc(C#N)c1 [Example 391]"
  IC50: "< 1000 nM"
- Molecule: "CC[C@@H]1C(=O)N(C)c2cnc(-n3cnc(C(=O)N(C)C)c3)nc2N1C1CCCC1 [Example 384]"
  IC50: "1000 to 10000 nM"
- Molecule: "CC[C@@H]1C(=O)N(C)c2cnc(-c3cn[nH]c3-c3nccs3)nc2N1c1ccc(Cl)cc1 [Example 382]"
  IC50: "< 1000 nM"

Next molecule, IC50 to be filled in.
Q) Requested read-out: IC50. Entry: CCC1C(=O)N(C)c2cnc(-n3ccnc3-c3ccc(F)cc3)nc2N1c1ccc(Cl)cc1 (centres unmarked) [Example 388]
A) < 1000 nM

---

# Target System: PLK3 (Homo sapiens, UniProt Q9H4B4)
# Sequence (Q9H4B4 whole entry): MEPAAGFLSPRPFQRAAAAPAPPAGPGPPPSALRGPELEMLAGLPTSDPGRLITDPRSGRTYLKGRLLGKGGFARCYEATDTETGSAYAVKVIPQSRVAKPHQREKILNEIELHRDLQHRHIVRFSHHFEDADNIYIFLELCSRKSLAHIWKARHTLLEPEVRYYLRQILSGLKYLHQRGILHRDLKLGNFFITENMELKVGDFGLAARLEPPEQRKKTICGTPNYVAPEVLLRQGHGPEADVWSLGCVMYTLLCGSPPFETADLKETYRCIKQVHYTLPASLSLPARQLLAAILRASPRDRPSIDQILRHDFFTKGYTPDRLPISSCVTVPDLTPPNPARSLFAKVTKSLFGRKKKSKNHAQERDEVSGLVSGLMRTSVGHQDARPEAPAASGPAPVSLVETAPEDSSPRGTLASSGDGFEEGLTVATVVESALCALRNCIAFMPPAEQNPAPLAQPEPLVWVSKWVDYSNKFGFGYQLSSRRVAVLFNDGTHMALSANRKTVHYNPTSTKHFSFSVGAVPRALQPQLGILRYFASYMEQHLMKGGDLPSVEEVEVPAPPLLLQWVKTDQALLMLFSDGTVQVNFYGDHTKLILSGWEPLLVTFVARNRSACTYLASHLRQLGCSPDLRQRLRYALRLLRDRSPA
# Experimental Protocol: PLK TR-FRET peptide assay, PLK3
# Type: biochemical
# Particulars: GST-PLK3, 15 min reaction, read-out: Plk3 IC50
Reported IC50 values for a set of compounds

- Compound: "CC[C@@H]1C(=O)N(C)c2cnc(-c3cccc(NS(C)(=O)=O)c3)nc2N1C1CCCC1"
  IC50: "1 to 10 µM"
- Compound: "CC[C@@H]1C(=O)N(C)c2cnc(-n3ccnc3-c3ccc(F)c(Cl)c3)nc2N1C(C)C"
  IC50: "1 to 10 µM"

Q) Could you share what IC50 was measured for CC[C@@H]1C(=O)N(C)c2cnc(-c3ccncc3CNS(=O)(=O)c3ccccc3)nc2N1C(C)C , tested on PLK3 (Homo sapiens, UniProt Q9H4B4)?
A) > 50 µM

Q) Could you share what IC50 was measured for CC[C@@H]1C(=O)N(C)c2cnc(-c3sc(N)nc3-c3ccn[nH]3)nc2N1C(C)C , tested on PLK3 (Homo sapiens, UniProt Q9H4B4)?
A) 1 to 10 µM

Q) Could you share what IC50 was measured for CC[C@@]12CCCN1c1nc(-c3cn[nH]c3-c3nccs3)ncc1N(C)C2=O , tested on PLK3 (Homo sapiens, UniProt Q9H4B4)?
A) > 50 µM

Q) Could you share what IC50 was measured for CC[C@@H]1C(=O)N(C)c2cnc(-n3ccnc3C3=CCCC3)nc2N1C1CCCC1 , tested on PLK3 (Homo sapiens, UniProt Q9H4B4)?
A) 1 to 10 µM

Q) Could you share what IC50 was measured for CC[C@@H]1C(=O)N(C)c2cnc(-c3nccnc3-c3ccc(F)cc3)nc2N1C(C)C , tested on PLK3 (Homo sapiens, UniProt Q9H4B4)?
A) 1 to 10 µM

Q) Could you share what IC50 was measured for CC[C@@]12CCCCN1c1nc(-n3ccnc3-c3ccccc3)ncc1N(C)C2=O , tested on PLK3 (Homo sapiens, UniProt Q9H4B4)?
A) 1 to 10 µM

Q) Could you share what IC50 was measured for CC[C@@H]1C(=O)N(C)c2cnc(-n3ccnc3-c3ccc(F)c(F)c3)nc2N1C1CC(F)C1 (stereo partly shown) , tested on PLK3 (Homo sapiens, UniProt Q9H4B4)?
A) 1 to 10 µM

From: patent US8541418B2
